# experimental-target: GR (human) (Homo sapiens, UniProt P04150)
# Construct: GR (human) (agonist radioligand) IM-9 cells (cytosol); endogenous in cells
# Sequence (P04150 1-777): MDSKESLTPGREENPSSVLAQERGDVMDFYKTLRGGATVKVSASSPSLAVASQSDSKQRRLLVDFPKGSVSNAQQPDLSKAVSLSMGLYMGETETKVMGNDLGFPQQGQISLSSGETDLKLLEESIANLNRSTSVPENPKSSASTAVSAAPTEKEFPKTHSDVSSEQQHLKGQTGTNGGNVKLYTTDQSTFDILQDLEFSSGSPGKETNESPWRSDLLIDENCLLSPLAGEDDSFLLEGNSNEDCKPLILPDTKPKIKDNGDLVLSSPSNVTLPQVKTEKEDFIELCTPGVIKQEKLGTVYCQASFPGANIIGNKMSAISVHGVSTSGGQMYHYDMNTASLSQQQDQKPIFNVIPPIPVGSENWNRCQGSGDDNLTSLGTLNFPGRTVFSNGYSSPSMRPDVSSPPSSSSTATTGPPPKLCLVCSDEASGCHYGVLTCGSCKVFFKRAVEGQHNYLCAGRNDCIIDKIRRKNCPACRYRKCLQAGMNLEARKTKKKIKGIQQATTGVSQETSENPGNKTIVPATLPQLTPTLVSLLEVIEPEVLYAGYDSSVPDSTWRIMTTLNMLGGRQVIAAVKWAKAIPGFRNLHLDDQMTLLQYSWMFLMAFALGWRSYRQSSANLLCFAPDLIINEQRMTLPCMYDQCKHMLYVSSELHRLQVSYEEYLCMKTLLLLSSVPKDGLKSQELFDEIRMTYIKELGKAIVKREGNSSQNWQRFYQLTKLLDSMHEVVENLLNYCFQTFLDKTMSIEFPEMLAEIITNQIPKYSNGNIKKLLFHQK
# assay-notes: Radioligand binding to GR ([3H]dexamethasone, IM-9 cells cytosol)
# conditions-used: Cheng Prusoff; [3H]-dexamethasone

# cpd-smiles, experimental-target, Ki
measured = [
    ("CN1CCC(Oc2ccc(N3C(=S)N(c4cnc(C#N)c(C(F)(F)F)c4)C(=O)C34CCC4)cc2)CC1", "GR (human) (Homo sapiens, UniProt P04150)", "9.9 µM"),
]

---

# experimental-target: wild-type Androgen Receptor (AR-wt) (Homo sapiens, UniProt P10275)
# Construct: expressed in transfected cells; host or cells: LNCaP AR (cs) cells with ARE firefly luciferase lentiviral construct
# Sequence (P10275 whole entry): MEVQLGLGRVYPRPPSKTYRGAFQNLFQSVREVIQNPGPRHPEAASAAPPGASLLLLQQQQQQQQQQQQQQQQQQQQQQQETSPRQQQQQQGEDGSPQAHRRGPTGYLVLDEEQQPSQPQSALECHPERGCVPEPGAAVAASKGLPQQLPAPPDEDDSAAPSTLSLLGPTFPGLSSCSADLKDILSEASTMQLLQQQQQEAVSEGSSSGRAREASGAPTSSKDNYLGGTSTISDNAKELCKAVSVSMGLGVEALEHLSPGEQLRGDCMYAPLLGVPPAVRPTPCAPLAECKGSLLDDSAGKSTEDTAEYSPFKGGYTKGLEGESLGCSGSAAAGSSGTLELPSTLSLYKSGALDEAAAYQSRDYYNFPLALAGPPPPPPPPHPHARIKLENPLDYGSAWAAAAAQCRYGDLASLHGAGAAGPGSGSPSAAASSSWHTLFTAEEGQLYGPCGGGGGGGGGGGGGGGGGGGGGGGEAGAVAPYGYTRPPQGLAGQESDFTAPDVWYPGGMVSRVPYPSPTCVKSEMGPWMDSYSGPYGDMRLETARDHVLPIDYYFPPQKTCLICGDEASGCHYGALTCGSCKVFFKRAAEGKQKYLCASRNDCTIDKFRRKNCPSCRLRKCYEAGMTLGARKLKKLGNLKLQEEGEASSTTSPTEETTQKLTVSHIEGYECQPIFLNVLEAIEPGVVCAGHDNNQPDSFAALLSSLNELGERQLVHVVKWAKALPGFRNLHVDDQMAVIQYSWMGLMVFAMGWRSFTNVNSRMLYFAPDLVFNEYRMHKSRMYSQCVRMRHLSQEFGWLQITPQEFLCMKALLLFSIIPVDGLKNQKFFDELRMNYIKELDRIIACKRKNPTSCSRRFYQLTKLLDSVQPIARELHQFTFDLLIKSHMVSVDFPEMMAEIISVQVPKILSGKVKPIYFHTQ
# assay-notes: LNCaP-AR-wt AG: ARE luciferase reporter assay, agonist mode
# Format: cell-based
# conditions-used: maximum % stimulation (agonist response), % of 1 μM R-1881 max

# cpd-smiles, LNCaP-AR-wt AG MAX % Stim / %
data = [
    ("N#Cc1ncc(N2C(=O)C3(CCC3)N(c3ccc(C(=O)NCc4cccs4)c(F)c3)C2=S)cc1C(F)(F)F", 1.5),
    ("N#Cc1ncc(N2C(=O)C3(CCC3)N(c3ccc(C(=O)NCCCN4CCOCC4)c(F)c3)C2=S)cc1C(F)(F)F", 0.3),
    ("N#Cc1ncc(N2C(=O)C3(CCC3)N(c3ccc(C(=O)NCCCc4ccccc4)c(F)c3)C2=S)cc1C(F)(F)F", 0.0),
    ("N#Cc1ncc(N2C(=O)C3(CCC3)N(c3ccc(OC4CCN(CCO)CC4)cc3)C2=S)cc1C(F)(F)F", 0.8),
    ("Cc1cc(N2C(=O)C3(CCC3)N(c3ccc(C(=O)NC4CCOCC4)c(F)c3)C2=S)cnc1C#N", 0.8),
    ("Cc1cncc(-c2ccc(N3C(=S)N(c4cnc(C#N)c(C)c4)C(=O)C34CCC4)cc2)c1", 0.7),
    ("CNC(=O)c1ccc(N2C(=S)N(c3cnc(C#N)c(C)c3)C(=O)C2(C)C)cc1F", 0.9),
    ("N#Cc1ncc(N2C(=O)C3(CCC3)N(c3ccc4ccccc4c3)C2=S)cc1C(F)(F)F", "−0.2"),
    ("N#Cc1ncc(N2C(=O)C3(CCC3)N(c3ccccc3)C2=S)cc1C(F)(F)F", 0.3),
    ("Cc1ccc(NC(=O)c2ccc(N3C(=S)N(c4cnc(C#N)c(C)c4)C(=O)C34CCC4)cc2F)cn1", 0.8),
    ("Cc1cc(N2C(=O)C3(CCC3)N(c3ccc(Oc4ccncn4)cc3)C2=S)cnc1C#N", 0.8),
    ("N#Cc1ncc(N2C(=O)C3(CCC3)N(c3cccc4ccccc34)C2=S)cc1C(F)(F)F", "−0.1"),
    ("N#Cc1ncc(N2C(=O)C3(CCC3)N(c3ccc(OCCCN4CCCC4)c(F)c3)C2=S)cc1C(F)(F)F", 0.7),
    ("N#Cc1ncc(N2C(=O)C3(CCC3)N(c3cccnc3)C2=S)cc1C(F)(F)F", "−0.2"),
    ("Cc1cc(N2C(=O)C3(CCC3)N(c3ccc(C(=O)Nc4nccs4)c(F)c3)C2=S)cnc1C#N", 0.7),
    ("N#Cc1ncc(N2C(=O)C3(CCC3)N(c3ccc(Oc4ccccn4)cc3)C2=S)cc1C(F)(F)F", 4.0),
    ("CCCNC(=O)c1ccc(N2C(=S)N(c3cnc(C#N)c(C(F)(F)F)c3)C(=O)C23CCC3)cc1F", 0.2),
    ("CC(C)CCNC(=O)c1ccc(N2C(=S)N(c3cnc(C#N)c(C(F)(F)F)c3)C(=O)C23CCC3)cc1F", 0.4),
    ("C#CCNC(=O)c1ccc(N2C(=S)N(c3cnc(C#N)c(C(F)(F)F)c3)C(=O)C23CCC3)cc1F", 0.5),
]
